Test system: M. tuberculosis H37Ra (ATCC 25177)
ASSAY_PROCEDURE: Microbroth culture for bacteriostatic and bactericidal activity (OD readings, subculture on 7H10 agar)
Format: cell-based, Mycobacterium tuberculosis
DETAILS: Mtb H37Ra, compound concentration 5 μg/ml
ASSAY_ENDPOINT: colony counts after four weeks of exposure

                                   compound  measured
0  CC(=O)Nc1cccc(OCc2cccc(N3C(=N)NC(=N)NC3(C)C)c2)c1 [Compound 5]       +++
1  Nc1nc(N)c(-c2ccc(Cl)c(Cl)c2)c(COc2cccc3ccccc23)n1 [Compound 2]       +++
2  Nc1nc(N)c2cc(S(=O)(=O)c3ccc(Cl)cc3)ccc2n1 [Compound 7]       +++

---

Test system: M. tuberculosis H37Ra (ATCC 25177)
ASSAY_PROCEDURE: Microbroth culture for bacteriostatic and bactericidal activity (OD readings, subculture on 7H10 agar)
Type: cell-based, Mycobacterium tuberculosis
DETAILS: Mtb H37Ra, compound concentration 100 μg/ml
ASSAY_ENDPOINT: colony counts after four weeks of exposure

In [3]: df
Out[3]:
                               entry_smiles  measured
0  Nc1nc(N)c(-c2ccc(Cl)c(Cl)c2)c(COc2ccc([N+](=O)[O-])cc2)n1       +++
1  CC(=O)Nc1cccc(OCc2cccc(N3C(=N)NC(=N)NC3(C)C)c2)c1       +++
2  Nc1nc(N)c2cc(S(=O)(=O)c3ccc(Cl)cc3)ccc2n1       +++

---

STUDY_TARGET: h-DHFR (Homo sapiens, UniProt P00374)
Construct: made in house
Sequence (P00374 whole entry): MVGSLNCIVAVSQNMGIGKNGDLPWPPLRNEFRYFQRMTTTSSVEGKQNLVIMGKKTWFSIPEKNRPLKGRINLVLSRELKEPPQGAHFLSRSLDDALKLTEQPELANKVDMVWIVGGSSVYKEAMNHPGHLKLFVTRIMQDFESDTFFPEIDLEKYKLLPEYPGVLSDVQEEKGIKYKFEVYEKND
ASSAY_PROCEDURE: in vitro enzyme assay, recombinant h-DHFR (NADPH oxidation at 340 nm)
Assay type: biochemical
DETAILS: recombinant enzyme 20 nM, 40 μM NADPH, 40 μM dihydrofolate, pH 7.0, 25 °C
ASSAY_ENDPOINT: IC50 (nM)
The answer is to be given in nM; state only the numeric part.

In [3]: df
Out[3]:
                               entry_smiles                           study_target  assay_endpoint  measured
0  Nc1nc(N)c2cc(S(=O)(=O)c3ccc(Cl)cc3)ccc2n1  h-DHFR (Homo sapiens, UniProt P00374)            IC50       440
1  Nc1nc(N)c2c(ccc3c2ccn3Cc2cccc([N+](=O)[O-])c2)n1  h-DHFR (Homo sapiens, UniProt P00374)            IC50        33
2         Nc1nc(N)c2cc(Sc3ccc(Cl)cc3)ccc2n1  h-DHFR (Homo sapiens, UniProt P00374)            IC50       100
3  Nc1nc(N)c(-c2ccc(Cl)c(Cl)c2)c(COc2cccc3ccccc23)n1  h-DHFR (Homo sapiens, UniProt P00374)            IC50        70
4  Nc1nc(N)c(-c2ccc(Cl)c(Cl)c2)c(COc2ccc([N+](=O)[O-])cc2)n1  h-DHFR (Homo sapiens, UniProt P00374)            IC50       130

# IC50 of Nc1nc(N)c(-c2cccc(C(F)(F)F)c2)c(Cc2cccc(C(F)(F)F)c2)n1 = 135

# IC50 of Nc1ccc(C(=O)Nc2ccc(OCc3nc(N)nc(N)c3-c3ccc(Cl)cc3)cc2)cc1 = 2500

---

System: M. tuberculosis H37Ra (ATCC 25177)
ASSAY_PROCEDURE: Microbroth culture for bacteriostatic and bactericidal activity (OD readings, subculture on 7H10 agar)
Type: cell-based, Mycobacterium tuberculosis
DETAILS: Mtb H37Ra, compound concentration 10 μg/ml
ASSAY_ENDPOINT: colony counts after four weeks of exposure

For orientation, consider the following solved cases.
>>> print(df.to_string())
                                   compound                        study_target  measured
0  Nc1nc(N)c(-c2ccc(Cl)c(Cl)c2)c(COc2ccc([N+](=O)[O-])cc2)n1 [Compound 1]  M. tuberculosis H37Ra (ATCC 25177)       +++
1  Nc1nc(N)c2cc(Sc3ccc(Cl)cc3)ccc2n1 [Compound 8]  M. tuberculosis H37Ra (ATCC 25177)       +++
2  Nc1nc(N)c2cc(S(=O)(=O)c3ccc(Cl)cc3)ccc2n1 [Compound 7]  M. tuberculosis H37Ra (ATCC 25177)       +++
3  CC(=O)Nc1cccc(OCc2cccc(N3C(=N)NC(=N)NC3(C)C)c2)c1 [Compound 5]  M. tuberculosis H37Ra (ATCC 25177)       +++
4  Nc1nc(N)c(-c2cccc(C(F)(F)F)c2)c(Cc2cccc(C(F)(F)F)c2)n1 [Compound 3]  M. tuberculosis H37Ra (ATCC 25177)       +++
5  Nc1ccc(C(=O)Nc2ccc(OCc3nc(N)nc(N)c3-c3ccc(Cl)cc3)cc2)cc1 [Compound 4]  M. tuberculosis H37Ra (ATCC 25177)       +++

Let's switch to this compound now.
colony counts after four weeks of exposure of Nc1nc(N)c(-c2ccc(Cl)c(Cl)c2)c(COc2cccc3ccccc23)n1 [Compound 2] , assay on M. tuberculosis H37Ra (ATCC 25177), is +++

---

STUDY_TARGET: mt-DHFR (Mycobacterium tuberculosis)
Construct: made in house
ASSAY_PROCEDURE: biochemical
Type: biochemical
DETAILS: ratio of IC50 values
ASSAY_ENDPOINT: Ratio h-DHFR/mt-DHFR

For orientation, consider the following solved cases.
>>> print(df.to_string())
                               entry_smiles  measured
0  Nc1nc(N)c(-c2ccc(Cl)c(Cl)c2)c(COc2cccc3ccccc23)n1      0.64
1  Nc1nc(N)c(-c2cccc(C(F)(F)F)c2)c(Cc2cccc(C(F)(F)F)c2)n1      0.75
2  Nc1nc(N)c2cc(S(=O)(=O)c3ccc(Cl)cc3)ccc2n1      6.98
3  Nc1nc(N)c2c(ccc3c2ccn3Cc2cccc([N+](=O)[O-])c2)n1       5.5
4  Nc1nc(N)c(-c2ccc(Cl)c(Cl)c2)c(COc2ccc([N+](=O)[O-])cc2)n1         1

# Ratio h-DHFR/mt-DHFR of Nc1ccc(C(=O)Nc2ccc(OCc3nc(N)nc(N)c3-c3ccc(Cl)cc3)cc2)cc1 = 0.96

# Ratio h-DHFR/mt-DHFR of Nc1nc(N)c2cc(Sc3ccc(Cl)cc3)ccc2n1 = 2.5

---

STUDY_TARGET: mt-DHFR (Mycobacterium tuberculosis, UniProt P9WNX1)
Construct: made in house
Sequence (P9WNX1 whole entry): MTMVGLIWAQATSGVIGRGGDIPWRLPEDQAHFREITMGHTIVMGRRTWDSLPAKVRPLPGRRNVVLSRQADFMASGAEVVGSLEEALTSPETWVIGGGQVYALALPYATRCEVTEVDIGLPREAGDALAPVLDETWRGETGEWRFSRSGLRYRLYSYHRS
ASSAY_PROCEDURE: biochemical
Format: biochemical
# note: boundary value 60 nM maps to class 0; IC50 below it maps to class 1

Answered cases to consult:
>>> df
                               entry_smiles  assigned_category
0  Nc1nc(N)c2c(ccc3c2ccn3Cc2cccc([N+](=O)[O-])c2)n1            class 1
1  Nc1nc(N)c(-c2ccc(Cl)c(Cl)c2)c(COc2cccc3ccccc23)n1            class 0
2  Nc1nc(N)c(-c2cccc(C(F)(F)F)c2)c(Cc2cccc(C(F)(F)F)c2)n1            class 0
3         Nc1nc(N)c2cc(Sc3ccc(Cl)cc3)ccc2n1            class 1
4  Nc1ccc(C(=O)Nc2ccc(OCc3nc(N)nc(N)c3-c3ccc(Cl)cc3)cc2)cc1            class 0
5  Nc1nc(N)c(-c2ccc(Cl)c(Cl)c2)c(COc2ccc([N+](=O)[O-])cc2)n1            class 0

With those in mind, consider the next compound.
query: Does the reported IC50 of the following compound sit strictly below 60 nM? Nc1nc(N)c2cc(S(=O)(=O)c3ccc(Cl)cc3)ccc2n1
result: class 0

Value source: paper PMC4607890
